Tested on: L929
measurement-description: Antiproliferative activity against mouse L929 cells by MTT assay
Type: functional, cell-based
observation-type: IC50

// solved cases for IC50 follow
CC1(C)COC2(C[C@@H]3CC4OC4[C@@H]3C2)OC1 (stereo partly drawn) ... > 40 µg/mL
C[C@H]1[C@H](O)C[C@]2(C)CC3(C[C@]12C)OCC(C)(C)CO3 ... > 150 µM
C[C@@H]1[C@H](O[Si](c2ccccc2)(c2ccccc2)C(C)(C)C)C[C@]2(C)CC3(C[C@]12C)OCC(C)(C)CO3 ... 11.8 µM
C[C@@H]1[C@@H]2[C@@H](CC(=O)[C@H]2C)C[C@H]1O[Si](c1ccccc1)(c1ccccc1)C(C)(C)C ... 14.8 µM
CC(C)(C)[Si](C)(C)OC1CCCC2C1C(O)[C@H]1CC(Br)C3(OCCO3)[C@@H]21 (stereo partly drawn) ... 15 µg/mL
O=C1C[C@@H]2C[C@@H](O)C[C@@H]2C1 ... > 40 µg/mL

QUERY: Provide one value: measured IC50 of C=CCC[C@H]1CC(=O)[C@@H]2C=CC(=O)[C@H]12 (racemic)
RESULT: 20 µM

QUERY: Provide one value: measured IC50 of C=CC[C@@H]1[C@H]2C/C(=N\NS(=O)(=O)c3ccc(C)cc3)[C@H](C)[C@H]2C[C@H]1O[Si](c1ccccc1)(c1ccccc1)C(C)(C)C
RESULT: 20 µM

QUERY: Provide one value: measured IC50 of C=CC[C@@H]1[C@H]2CC(=O)[C@H](CC=C)[C@H]2C[C@H]1O
RESULT: > 40 µg/mL

QUERY: Provide one value: measured IC50 of CC(C)(C)[Si](C)(C)OC1CCCC2C1C(=O)[C@H]1CC(Br)C3(OCCO3)[C@@H]21 (stereo partly drawn)
RESULT: 32 µg/mL

Origin of values: ChEMBL document CHEMBL3286338
